- Test target: SMO (Mus musculus, UniProt P56726)
- Construct: endogenous in cells; host or cells: C3H10T1/2 (ATCC #CCL-226)
- Sequence (P56726 33-793): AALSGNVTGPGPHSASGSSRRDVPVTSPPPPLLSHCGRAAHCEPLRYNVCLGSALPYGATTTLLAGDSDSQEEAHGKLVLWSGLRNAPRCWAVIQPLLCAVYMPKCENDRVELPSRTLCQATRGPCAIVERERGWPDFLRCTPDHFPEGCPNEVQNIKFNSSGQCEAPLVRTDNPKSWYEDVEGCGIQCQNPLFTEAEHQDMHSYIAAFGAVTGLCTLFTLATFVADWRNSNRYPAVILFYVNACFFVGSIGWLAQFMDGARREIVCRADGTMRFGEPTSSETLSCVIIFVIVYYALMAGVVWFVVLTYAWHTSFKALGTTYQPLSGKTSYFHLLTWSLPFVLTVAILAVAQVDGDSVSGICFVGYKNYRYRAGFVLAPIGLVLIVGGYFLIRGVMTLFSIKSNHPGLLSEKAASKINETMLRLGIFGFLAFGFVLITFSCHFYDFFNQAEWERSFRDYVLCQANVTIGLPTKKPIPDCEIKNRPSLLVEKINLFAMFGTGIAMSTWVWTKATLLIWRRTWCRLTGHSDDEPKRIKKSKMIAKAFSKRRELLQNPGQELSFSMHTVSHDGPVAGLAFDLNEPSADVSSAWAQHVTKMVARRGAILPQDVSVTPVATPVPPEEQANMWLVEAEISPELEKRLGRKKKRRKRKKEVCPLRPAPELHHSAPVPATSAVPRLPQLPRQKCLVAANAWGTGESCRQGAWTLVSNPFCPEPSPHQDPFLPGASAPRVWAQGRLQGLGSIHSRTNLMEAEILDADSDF
- Measurement description: Smoothened (SMO)/Sonic Hedgehog (SHh) Transient Transcriptional Activation Assay (Gli-luciferase reporter in C3H10T1/2 cells)
- Type: cell-based, murine
- Setup conditions: C3H 10T1/2, 2 μM test compound, SHh 250 ng/ml, 20 hrs, read-out: SMO CELL % INHIBITION @ 2 μM
Outcome measure: inhibition at 2 µM (%)

COc1cc(OC)cc(C(=O)NC2CCCC(c3nc4ccc(F)cc4[nH]3)C2)c1 (stereo not shown)	83

A: O=C(NC1CCCC(c2nc3ccccc3[nH]2)C1)c1ccc(O)c(Cl)c1 (stereo not shown)
B: O=C(NC1CCCC(c2nc3ccccc3[nH]2)C1)c1ccc(CN2CCOCC2)o1 (stereo not shown)
C: Cc1nc2cc(C(=O)N[C@@H]3CCC[C@H](c4nc5ccccc5[nH]4)C3)ccc2s1
Enquiry: Arrange these 3 compounds in increasing order of inhibition at 2 µM. Answer format: list of labels, ordered as asked.
Return: C, A, B

* * *

- Test target: SMO (Mus musculus, UniProt P56726)
- Construct: endogenous in cells; host or cells: C3H10T1/2 (ATCC #CCL-226)
- Measurement description: Smoothened (SMO)/Sonic Hedgehog (SHh) Transient Transcriptional Activation Assay (Gli-luciferase reporter in C3H10T1/2 cells)
- Type: cell-based, murine
- Setup conditions: C3H 10T1/2, 2 μM test compound, SHh 250 ng/ml, 20 hrs, read-out: SMO CELL % INHIBITION @ 2 μM
Structures can show the parent of a compound that is named as a salt.
Outcome measure: inhibition at 2 µM (%)

Answered cases to consult:
Cc1nc2cc(C(=O)N[C@@H]3CCC[C@H](c4nc5ccccc5[nH]4)C3)ccc2[nH]1	50
O=C(NC12CCCC(c3nc4cc(C(F)(F)F)ccc4[nH]3)(C1)C2)c1ccc2c(c1)CCCO2	84.7
O=C(Cn1ccc2sccc2c1=O)NC1CCCC(c2nc3ccccc3[nH]2)C1 (stereo not drawn) [Example 127, HCl]	100
Cn1ccnc1C(=O)NC1CCCC(c2nc3ccccc3[nH]2)C1 (stereo not drawn)	106
O=C(Cc1cn2cc(Cl)ccc2n1)NC1CCCC(c2nc3ccccc3[nH]2)C1 (stereo not drawn)	79

1: COc1cc(OC)cc(C(=O)NC2CCCC(c3nc4cc(C(F)(F)F)ccc4[nH]3)C2)c1 (stereo not drawn) [Example 74, HCl]
2: Cc1ccoc1C(=O)NC1CCCC(c2nc3ccccc3[nH]2)C1 (stereo not drawn)
3: O=C(N[C@@H]1CCC[C@H](c2nc3ccccc3[nH]2)C1)c1n[nH]c2ccccc12
Enquiry: Arrange these 3 compounds in increasing order of inhibition at 2 µM. Answer format: list of labels, ordered as asked.
Return: 2, 3, 1

* * *

- Test target: SMO (Mus musculus, UniProt P56726)
- Construct: endogenous in cells; host or cells: C3H10T1/2 (ATCC #CCL-226)
- Measurement description: Smoothened (SMO)/Sonic Hedgehog (SHh) Transient Transcriptional Activation Assay (Gli-luciferase reporter in C3H10T1/2 cells)
- Format: cell-based, murine
- Setup conditions: C3H 10T1/2, 2 μM test compound, SHh 250 ng/ml, 20 hrs, read-out: SMO CELL % INHIBITION @ 2 μM
Counter-ions that a name gives are not always drawn.
Outcome measure: inhibition at 2 µM (%)

O=C(NC1CCCC(c2nc3ccccc3[nH]2)C1)c1ccc2cc[nH]c2c1 (stereo not shown) [Example 140, HCl]	110
COc1ncccc1C(=O)NC1CCCC(c2nc3ccccc3[nH]2)C1 (stereo not shown)	97
O=C(CCC(=O)c1ccccc1)NC1CCCC(c2nc3ccccc3[nH]2)C1 (stereo not shown)	96
O=C(N[C@H]1CCC[C@@H](c2nc3ccccc3[nH]2)C1)c1ccc2c(c1)OCCO2 [Example 72, HCl]	96
